FYI, the data here is from the supplement of paper PMC5908809.

- System: normal primary NK cells, pool 3 (3 donors) (IL-2 2.5 ng/mL);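 also: normalised to DMSO-only wells as negative and benzethonium chloride as positive control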
- assay_procedure: percent inhibition of viability; higher = more inhibition
- condition_details: 72 h; 1000 nM
The reader will find reported percent inhibition of viability values listed item by item below.

The following compounds have reported results that may help.
// fetch normal primary NK cells, pool 3 (3 donors) (IL-2 2.5 ng/mL) percent inhibition of viability for Cc1ccccc1C(C(=O)NC1CCCCC1)N(C(=O)Cn1ccnc1C)c1cccc(F)c1 (configuration not stated) [AGI-5198] (max concentration tested 10000 nM)
2.48%

// fetch normal primary NK cells, pool 3 (3 donors) (IL-2 2.5 ng/mL) percent inhibition of viability for Nc1nc(N)c2nc(-c3cccc(O)c3)c(-c3cccc(O)c3)nc2n1 [TG100-115] (max concentration tested 10000 nM)
-1.79%

// fetch normal primary NK cells, pool 3 (3 donors) (IL-2 2.5 ng/mL) percent inhibition of viability for COc1cc2c(Oc3ccc4[nH]c(C)cc4c3F)ncnc2cc1OCCCN1CCCC1 [Cediranib] (max concentration tested 1000 nM)
-3.19%

// fetch normal primary NK cells, pool 3 (3 donors) (IL-2 2.5 ng/mL) percent inhibition of viability for CCCC(CCC)C(=O)O [Valproic acid] (max concentration tested 1000000 nM)
-8.36%

// fetch normal primary NK cells, pool 3 (3 donors) (IL-2 2.5 ng/mL) percent inhibition of viability for N#Cc1ccc(C(c2ccc(C#N)cc2)n2cncn2)cc1 [Letrozole] (max concentration tested 10000 nM)
-4.55%

// fetch normal primary NK cells, pool 3 (3 donors) (IL-2 2.5 ng/mL) percent inhibition of viability for Cc1cc(C)c(/C=C2\C(=O)Nc3ccccc32)[nH]1 [Semaxanib] (max concentration tested 10000 nM)
-15.4%

More entries:
// fetch normal primary NK cells, pool 3 (3 donors) (IL-2 2.5 ng/mL) percent inhibition of viability for Clc1ccc(C(c2ccccc2Cl)C(Cl)Cl)cc1 (configuration not stated) [Mitotane] (max concentration tested 10000 nM)
-8.07%

----------
The reader will find reported percent inhibition of viability values listed item by item below.
- Test system: normal primary NK cells, pool 3 (3 donors) (IL-2 2.5 ng/mL);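 also: normalised to DMSO-only wells as negative and benzethonium chloride as positive control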
- assay_procedure: percent inhibition of viability; higher = more inhibition
- condition_details: 72 h; 100 nM
Just the number please, in %, no unit attached.

Look at this compound and give its reported percent inhibition of viability. COc1cc2c(Oc3ccc4[nH]c(C)cc4c3F)ncnc2cc1OCCCN1CCCC1 [Cediranib] (max concentration tested 1000 nM)
-12.7

More entries:
Look at this compound and give its reported percent inhibition of viability. C[C@]1(c2nc3c(C(N)=O)cccc3[nH]2)CCCN1 [Veliparib] (max concentration tested 10000 nM)
-0.62

Look at this compound and give its reported percent inhibition of viability. CC[C@H](NC(=O)[C@H](C)NC)C(=O)N1C[C@@H](O)C[C@H]1Cc1c(-c2[nH]c3cc(F)ccc3c2C[C@@H]2C[C@H](O)CN2C(=O)[C@H](CC)NC(=O)[C@H](C)NC)[nH]c2cc(F)ccc12 [Birinapant] (max concentration tested 1000 nM)
-3.61

Look at this compound and give its reported percent inhibition of viability. CNC(=O)CN1CCC(Oc2cc3c(Nc4cccc(Cl)c4F)ncnc3cc2OC)CC1 [Sapitinib] (max concentration tested 1000 nM)
-3.48

Look at this compound and give its reported percent inhibition of viability. CNC(=O)c1ccc(N2C(=S)N(c3ccc(C#N)c(C(F)(F)F)c3)C(=O)C23CCC3)cc1F [RD162] (max concentration tested 10000 nM)
1.71

Look at this compound and give its reported percent inhibition of viability. COCC[n+]1c2c(n(Cc3cnccn3)c1C)C(=O)c1ccccc1C2=O [YM155] (max concentration tested 10000 nM)
6.74
